Here the recorded IC50 is given for each entry.
- target.or.test.system: Recombinant human EIF2AK3 (PERK) catalytic domain (amino acids 536-1116) (Homo sapiens (Human), UniProt Q9NZJ5)
- Sequence (Q9NZJ5 536-1116): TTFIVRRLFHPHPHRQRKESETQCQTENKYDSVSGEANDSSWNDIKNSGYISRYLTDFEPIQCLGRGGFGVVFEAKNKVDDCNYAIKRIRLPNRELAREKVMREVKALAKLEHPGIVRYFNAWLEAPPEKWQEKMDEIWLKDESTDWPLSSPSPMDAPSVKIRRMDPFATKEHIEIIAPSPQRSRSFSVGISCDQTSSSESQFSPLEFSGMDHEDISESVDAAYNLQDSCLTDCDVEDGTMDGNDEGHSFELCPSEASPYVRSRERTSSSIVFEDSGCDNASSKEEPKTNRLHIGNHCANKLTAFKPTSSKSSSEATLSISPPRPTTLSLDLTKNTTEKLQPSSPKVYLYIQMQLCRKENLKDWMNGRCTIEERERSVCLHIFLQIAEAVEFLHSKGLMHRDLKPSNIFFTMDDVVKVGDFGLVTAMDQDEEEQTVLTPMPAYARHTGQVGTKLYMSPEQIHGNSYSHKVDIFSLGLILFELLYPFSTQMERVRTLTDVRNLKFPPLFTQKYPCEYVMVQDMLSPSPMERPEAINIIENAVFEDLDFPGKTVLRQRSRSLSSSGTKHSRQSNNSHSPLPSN
- experimental.details: PERK In Vitro Activity Assay (isolated), TR-FRET kinase assay
- measurement.parameters: isolated PERK enzyme, 1.5 μM ATP, read-out: Biochemical IC50
experimental.readout: IC50

> print(dat)
                                   compound  experimental.value
1  [2H]C([2H])([2H])c1nc(-c2ccc(NC(=O)C(O)c3cccc(F)c3)cc2F)c2c(N)ncc(C(F)(F)F)n12 (stereo not drawn) [Example 77]          1 to 25 nM
2  [2H]C([2H])([2H])c1nc(-c2ccc(NC(=O)C(O)c3cccc(C(F)(F)F)c3)cc2C)c2c(N)ncc(C(F)(F)F)n12 (stereo not drawn) [Example 20]          1 to 25 nM
3  [2H]C([2H])([2H])c1nc(-c2ccc(NC(=O)C(O)c3cc(F)cc(F)c3)cc2C)c2c(N)nc(C)cn12 (stereo not drawn) [Example 45]        51 to 100 nM
